Exercise: for every item that follows, state its recorded Dose required to increase BMD by 20% greater than control.
Tested on: bone resorption (metaphyseal BMD)
Test: Growing rat model adapted from the Schenk assay: BMD of proximal tibial metaphysis by DXA
Format: in vivo
Details: growing male Sprague Dawley rats, s.c. daily for 7 days
Experimental: The antiresorptive potency of OX14 was measured by its effect on increasing BMD compared to ALN, ZOL, RIS, and MIN in a growing rat model adapted from the Schenk assay.26, 27 These studies were performed at the Procter & Gamble Health Sciences Center, Mason, OH, USA from 2007 to 2010, as part of the program of screening new bisphosphonates. […] Efficacy of each bisphosphonate was expressed as percentage change from the vehicle control group. […]
Quick reminder: number only, in μg P/kg, skip the unit.

[Q] Value lookup for Dose required to increase BMD by 20% greater than control; key = O=P(O)(O)C(O)(Cc1cnc2ccccn12)P(=O)(O)O [Minodronate, minodronate]
[A] 0.11

[Q] Please report the recorded Dose required to increase BMD by 20% greater than control for O=P(O)(O)C(O)(Cc1cccnc1)P(=O)(O)O [Risedronate, risedronate] .
[A] 0.45

[Q] Can you share its Dose required to increase BMD by 20% greater than control? I mean this compound: NCCCC(O)(P(=O)(O)O)P(=O)(O)O [Alendronate, alendronate]
[A] 1.52

[Q] Endpoint output: Dose required to increase BMD by 20% greater than control of O=P(O)(O)C(O)(Cn1ccnc1)P(=O)(O)O [Zoledronate, zoledronate] . Value?
[A] 0.08

[Q] Name the reported Dose required to increase BMD by 20% greater than control value associated with the compound O=P(O)(O)C(F)(Cc1cnc2ccccn12)P(=O)(O)O [OX14]
[A] 0.30
